- subject.of.test: Human CARM1 (PRMT4) (Homo sapiens, UniProt Q86X55)
- Sequence (Q86X55 2-585 isoform Q86X55-1): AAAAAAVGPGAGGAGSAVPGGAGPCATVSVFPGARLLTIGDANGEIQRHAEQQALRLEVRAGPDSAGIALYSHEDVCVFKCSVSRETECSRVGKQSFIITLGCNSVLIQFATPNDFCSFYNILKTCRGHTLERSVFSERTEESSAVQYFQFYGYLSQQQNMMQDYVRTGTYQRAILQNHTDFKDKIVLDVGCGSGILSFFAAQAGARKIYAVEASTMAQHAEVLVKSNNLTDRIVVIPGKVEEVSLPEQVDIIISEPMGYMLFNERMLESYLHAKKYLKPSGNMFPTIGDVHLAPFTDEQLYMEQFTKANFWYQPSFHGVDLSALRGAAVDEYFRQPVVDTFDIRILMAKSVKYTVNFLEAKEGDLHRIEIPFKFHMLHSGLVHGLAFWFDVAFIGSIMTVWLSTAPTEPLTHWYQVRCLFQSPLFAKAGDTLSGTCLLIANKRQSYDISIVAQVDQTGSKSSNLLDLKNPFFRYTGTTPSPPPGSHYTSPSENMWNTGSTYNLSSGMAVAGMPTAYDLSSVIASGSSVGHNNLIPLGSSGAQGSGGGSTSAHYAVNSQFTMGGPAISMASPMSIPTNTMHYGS
pIC50: −log10 of the molar value.
Threshold check on pIC50: at or above 7 gives T, strictly below gives F.

compound | subject.of.test | class
CC(C)n1ncc2c(C(=O)N(C)Cc3cccnc3)cc(-c3cccc(CN(C)CCN)c3)nc21 [Compound 224] | Human CARM1 (PRMT4) (Homo sapiens, UniProt Q86X55) | T
CNCCN(C)Cc1cccc(-c2cc(C(O)C3CCOCC3)c3cnn(C(C)C)c3n2)c1 (stereo not shown) [Compound 315] | Human CARM1 (PRMT4) (Homo sapiens, UniProt Q86X55) | F
COc1cccc(CCn2cnc3ccc(-c4ccc(CNCCN)cc4)cc32)c1 [Compound 94] | Human CARM1 (PRMT4) (Homo sapiens, UniProt Q86X55) | F
CNCCN(C)Cc1cccc(-c2cc(C(=O)NCCCCC(=O)NCc3ccn(C)n3)c3cnn(C(C)C)c3n2)c1 [Compound 122] | Human CARM1 (PRMT4) (Homo sapiens, UniProt Q86X55) | T
CNCCN(C)Cc1cccc(-c2cc(C(=O)NCc3c(F)cccc3F)c3cnn(C(C)C)c3n2)c1 [Compound 47] | Human CARM1 (PRMT4) (Homo sapiens, UniProt Q86X55) | T
COc1ccccc1Cn1cnc2ccc(-c3ccc(CNCCN)cc3)cc21 [Compound 80] | Human CARM1 (PRMT4) (Homo sapiens, UniProt Q86X55) | F
CNCCN(C)Cc1cccc(-c2ccc3c(c2)ncn3CCOC)c1 [Compound 34] | Human CARM1 (PRMT4) (Homo sapiens, UniProt Q86X55) | F
CC(C)n1ncc2c(C(=O)N(C)Cc3ccccc3Cl)cc(-c3cccc(CN(C)CCN)c3)nc21 [Compound 242] | Human CARM1 (PRMT4) (Homo sapiens, UniProt Q86X55) | T
CC(C)n1ncc2c(NS(=O)(=O)N(C)C)cc(-c3cccc(CN(C)CCN)c3)nc21 [Compound 107] | Human CARM1 (PRMT4) (Homo sapiens, UniProt Q86X55) | T
Cc1cc(C)c(CNC(=O)c2cncc(-c3ccc(CN(C)CCN(C)C)cc3)c2)c(=O)[nH]1 [Compound 378] | Human CARM1 (PRMT4) (Homo sapiens, UniProt Q86X55) | F
CNCCN(C)Cc1cccc(-c2cc(NS(C)(=O)=O)c3cnn(C(C)C)c3n2)c1 [Compound 170] | Human CARM1 (PRMT4) (Homo sapiens, UniProt Q86X55) | F
CNCCN(C)Cc1cccc(-c2cc(C(=O)NCC3COC3)c3cnn(C(C)C)c3n2)c1 [Compound 219] | Human CARM1 (PRMT4) (Homo sapiens, UniProt Q86X55) | T
CNCCN(C)Cc1cccc(-c2cc(N3CCOCC3)c3cnn(C(C)C)c3n2)c1 [Compound 68] | Human CARM1 (PRMT4) (Homo sapiens, UniProt Q86X55) | T
CNCCN(C)Cc1cccc(-c2cc(C(=O)NCC3CCOCC3)c3cnn(Cc4ccccn4)c3n2)c1 [Compound 318] | Human CARM1 (PRMT4) (Homo sapiens, UniProt Q86X55) | F
